# Assay Text: Pharmacokinetics in healthy non-Japanese subjects
# Type: in vivo, human
# Condition Label: read-out: Cmax, non-Japanese geometric mean, body weight normalized to 70 kg, 60 mg, Day 10
Observation Type: Cmax (µM)

INSERT INTO assay_data (molecule, val) VALUES
  ('Cc1cc(-c2ccc(C(=O)[C@@H]3CCCC[C@H]3C(=O)Nc3cnn4c3C(=O)NCC4)cc2)n[nH]1', 0.232);

====

# Type: in vivo, human
# Condition Label: Japanese, 180 mg OD, Day 10; geometric mean (CV%)
Observation Type: Cmax (nM)

INSERT INTO results (compound, observation_type, val) VALUES
  ('Cc1cc(-c2ccc(C(=O)[C@@H]3CCCC[C@H]3C(=O)Nc3cnn4c3C(=O)NCC4)cc2)n[nH]1 [AZD5718]', 'Cmax', 1570);
